B1: WDR88 (parent)
chain: LLTITKAHSNAISNCCFTFSGHFL

- Variants of: B1
- Test details: protein stability index of a GFP-peptide fusion (GPS, HEK-293T) (PSI 1-6); higher = more stable;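 also: lentivirally expressed fusions sorted by FACS into six bins by GFP to DsRed ratio, PSI derived from sequencing read proportions per bin multiplied by bin number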
- Stated conditions: c terminus: a fixed tail appended
Below, each of the variants is paired with its reported protein stability index value.
Measured quantity: protein stability index

sequence_string="LLTITKAHSNAVSNCCFTFSGHFL [I12V]" result=3.69
sequence_string="LLTDTKAHSNAISNCCFTFSGHFL [I4D]" result=3.07
sequence_string="LLTITKAHVNAISNCCFTFSGHFL [S9V]" result=4.49
sequence_string="LLTITKAHSNAISNCCFTFSWHFL [G21W]" result=2.94
sequence_string="LLTITKAHSNATSNCCFTFSGHFL [I12T]" result=2.98
sequence_string="LLTITAAHSNAISNCCFTFSGHFL [K6A]" result=2.8
sequence_string="LLTETKAHSNAISNCCFTFSGHFL [I4E]" result=1.99
sequence_string="LLTITKAHSNAICNCCFTFSGHFL [S13C]" result=2.35
sequence_string="LLTITKAHSNAMSNCCFTFSGHFL [I12M]" result=3.38
sequence_string="LLTITKAHSNDISNCCFTFSGHFL [A11D]" result=2.27
sequence_string="LLTITKAHSNAISNCCFLFSGHFL [T18L]" result=2.92
sequence_string="LLTGTKAHSNAISNCCFTFSGHFL [I4G]" result=1.9
sequence_string="LLTITKEHSNAISNCCFTFSGHFL [A7E]" result=3.31
sequence_string="LQTITKAHSNAISNCCFTFSGHFL [L2Q]" result=2.75
sequence_string="LLTITCAHSNAISNCCFTFSGHFL [K6C]" result=2.9
sequence_string="LLTITKSHSNAISNCCFTFSGHFL [A7S]" result=2.54
sequence_string="LLTICKAHSNAISNCCFTFSGHFL [T5C]" result=2.54
sequence_string="LLTITKAHSNAISNCCFTFSHHFL [G21H]" result=2.53
sequence_string="LLTITKAHSNAISNCCFTKSGHFL [F19K]" result=1.82
sequence_string="LLTITKAHSNAISNCCFTFSVHFL [G21V]" result=2.89
sequence_string="LCTITKAHSNAISNCCFTFSGHFL [L2C]" result=2.18
sequence_string="LLTITKAHSNAISNCCFTFSGHFF [L24F]" result=3.56
sequence_string="LLTITKACSNAISNCCFTFSGHFL [H8C]" result=2.53
sequence_string="LWTITKAHSNAISNCCFTFSGHFL [L2W]" result=3.22
sequence_string="LLTITKAHSNAISNCCFTFKGHFL [S20K]" result=2.04
sequence_string="LLTITKAHSNAISNCCFTFSGHAL [F23A]" result=3.02
sequence_string="LLTITKAHSNAIINCCFTFSGHFL [S13I]" result=3.51
sequence_string="LLTITKAHSNAISNCCFTFDGHFL [S20D]" result=1.98
sequence_string="LLTITKAHSNAISNCCFTFSGYFL [H22Y]" result=2.93
sequence_string="LLTYTKAHSNAISNCCFTFSGHFL [I4Y]" result=2.38
sequence_string="LLTITKAVSNAISNCCFTFSGHFL [H8V]" result=2.58
sequence_string="LLTITKAHSNAESNCCFTFSGHFL [I12E]" result=1.77
sequence_string="LLVITKAHSNAISNCCFTFSGHFL [T3V]" result=3.68
sequence_string="LLTLTKAHSNAISNCCFTFSGHFL [I4L]" result=2.9
sequence_string="LLTITKARSNAISNCCFTFSGHFL [H8R]" result=3.29
sequence_string="LLTITKAHSNAILNCCFTFSGHFL [S13L]" result=3.23
sequence_string="LPTITKAHSNAISNCCFTFSGHFL [L2P]" result=2.12
sequence_string="LLTITPAHSNAISNCCFTFSGHFL [K6P]" result=3.02
sequence_string="LLTITKAHSNAIMNCCFTFSGHFL [S13M]" result=3.08
sequence_string="LLLITKAHSNAISNCCFTFSGHFL [T3L]" result=2.37
sequence_string="LLTITKAHSVAISNCCFTFSGHFL [N10V]" result=2.49
sequence_string="LLTITKAHSNAISNCCFTFSGQFL [H22Q]" result=2.78
sequence_string="LLTITKAHWNAISNCCFTFSGHFL [S9W]" result=3.1
sequence_string="LFTITKAHSNAISNCCFTFSGHFL [L2F]" result=2.44
sequence_string="LLTITKAHSNAISNCCFDFSGHFL [T18D]" result=2.03
sequence_string="LLTITKAHSNAISNCCFRFSGHFL [T18R]" result=2.93
sequence_string="LLTITKAHSNAISNCCFTFSGHKL [F23K]" result=1.94
sequence_string="LLTITKAHSNAISNCCFTFIGHFL [S20I]" result=2.07
sequence_string="LLTITKAKSNAISNCCFTFSGHFL [H8K]" result=3.13
sequence_string="LLTITKAHSIAISNCCFTFSGHFL [N10I]" result=3.1
sequence_string="LLTITKAHSNAISNRCFTFSGHFL [C15R]" result=3.77
sequence_string="LLTITKAHSNAISNCCFTFSSHFL [G21S]" result=3.32
sequence_string="LLTITKAHSNADSNCCFTFSGHFL [I12D]" result=1.96
sequence_string="LLTITKIHSNAISNCCFTFSGHFL [A7I]" result=2.95
sequence_string="LLTITKFHSNAISNCCFTFSGHFL [A7F]" result=2.86
sequence_string="LLTITKAHSNLISNCCFTFSGHFL [A11L]" result=3.15
sequence_string="LLTITKAHSNAISNCCFTFSGFFL [H22F]" result=2.02
sequence_string="LLTITKAHSNAISSCCFTFSGHFL [N14S]" result=2.39
sequence_string="LLTIAKAHSNAISNCCFTFSGHFL [T5A]" result=3.41
sequence_string="LLTITKAHSNAISNCCFTASGHFL [F19A]" result=2.16
sequence_string="LLTITKAHSNAISNCCFTFSGGFL [H22G]" result=2.96
sequence_string="LLTITKAHSNAISNCCFTFSLHFL [G21L]" result=2.46
sequence_string="LLTITKAHSNAIANCCFTFSGHFL [S13A]" result=2.17
sequence_string="LLTITKAHSNAISNCCITFSGHFL [F17I]" result=3.65
sequence_string="NLTITKAHSNAISNCCFTFSGHFL [L1N]" result=2.47
sequence_string="LDTITKAHSNAISNCCFTFSGHFL [L2D]" result=1.4
sequence_string="LLTITKAHSNAISNCCFVFSGHFL [T18V]" result=3.09
sequence_string="LLTITKAHSNAISNCCFTFSAHFL [G21A]" result=2.88
sequence_string="RLTITKAHSNAISNCCFTFSGHFL [L1R]" result=2.75
sequence_string="LLTISKAHSNAISNCCFTFSGHFL [T5S]" result=3.33
sequence_string="LLTITKAHSNAISNCCFTFSGKFL [H22K]" result=2.06
sequence_string="LLTITKRHSNAISNCCFTFSGHFL [A7R]" result=3.62
sequence_string="LLTITKAHSNAISNCCFTFSPHFL [G21P]" result=3
sequence_string="LLTITKAHSNAISNCNFTFSGHFL [C16N]" result=4.12
sequence_string="LLTITKAHSNAISGCCFTFSGHFL [N14G]" result=3.72
sequence_string="LLTITKAHSSAISNCCFTFSGHFL [N10S]" result=3.46
sequence_string="LLTITKAHSNAISNCCFTFSGMFL [H22M]" result=3.59
sequence_string="LLTITKAHSNAISNCCFSFSGHFL [T18S]" result=2.58
sequence_string="LLTKTKAHSNAISNCCFTFSGHFL [I4K]" result=2.5
sequence_string="LLSITKAHSNAISNCCFTFSGHFL [T3S]" result=3.22
sequence_string="LLTITKAASNAISNCCFTFSGHFL [H8A]" result=3.08
